Recorded relative viability by entry
- System: NCI-H1975
- assay.details: relative viability (nuclei count vs DMSO), 5 days (fraction); higher = more cells survive
- run.conditions: first compound 0.005 µM

- compound: "CC1(C)CCC(c2ccc(Cl)cc2)=C(CN2CCN(c3ccc(C(=O)NS(=O)(=O)c4ccc(N[C@H](CCN5CCOCC5)CSc5ccccc5)c(S(=O)(=O)C(F)(F)F)c4)cc3)CC2)C1 [Navitoclax] + CC(=O)Nc1cccc(-n2c(=O)n(C3CC3)c(=O)c3c(Nc4ccc(I)cc4F)n(C)c(=O)c(C)c32)c1 [Trametinib] (partner 0.02 µM)"
  relative viability: 0.427
- compound: "CC1(C)CCC(c2ccc(Cl)cc2)=C(CN2CCN(c3ccc(C(=O)NS(=O)(=O)c4ccc(N[C@H](CCN5CCOCC5)CSc5ccccc5)c(S(=O)(=O)C(F)(F)F)c4)cc3)CC2)C1 [Navitoclax] + Nc1nc2[nH]cc(CCc3ccc(C(=O)N[C@@H](CCC(=O)O)C(=O)O)cc3)c2c(=O)[nH]1 [Pemetrexed] (partner 0.2 µM)"
  relative viability: 0.292

---

- Tested on: Calu-6
- assay.details: relative viability (nuclei count vs DMSO), 5 days (fraction); higher = more cells survive
- run.conditions: first compound 0.08 µM
List of relative viability values.
observed.property: relative viability

- compound: "C=C1C(=O)O[C@@H](CCCCCCCC)[C@@H]1C(=O)O [C-75] + CC1(C)CCC(c2ccc(Cl)cc2)=C(CN2CCN(c3ccc(C(=O)NS(=O)(=O)c4ccc(N[C@H](CCN5CCOCC5)CSc5ccccc5)c(S(=O)(=O)C(F)(F)F)c4)cc3)CC2)C1 [Navitoclax] (partner 0.5 µM)"
  observed.property: "relative viability"
  observed.measurement: 0.819
- compound: "Oc1nc(-c2ccc(C(F)(F)F)cc2)nc2c1CSCC2 [XAV939] + C[C@]1(O)C[C@@H](c2nc(-c3ccc4ccc(-c5ccccc5)nc4c3)c3c(N)nccn32)C1 [Linsitinib] (partner 1 µM)"
  observed.property: "relative viability"
  observed.measurement: 0.981

---

- System: NCI-H23
- assay.details: relative viability (nuclei count vs DMSO), 5 days (fraction); higher = more cells survive
- run.conditions: first compound 0.03162 µM
Each entry below carries its reported relative viability.
observed.property: relative viability

- compound: "NC(=O)Nc1cc(-c2cccc(F)c2)sc1C(=O)N[C@H]1CCCNC1 [AZD7762] + Cc1cc(Nc2cc(N3CCN(C)CC3)nc(Sc3ccc(NC(=O)C4CC4)cc3)n2)n[nH]1 [Tozasertib] (partner 0.1 µM)"
  study.target: "NCI-H23"
  observed.property: "relative viability"
  observed.measurement: 0.711
- compound: "NC(=O)Nc1cc(-c2cccc(F)c2)sc1C(=O)N[C@H]1CCCNC1 [AZD7762] + CC(C)C[C@H](NC(=O)[C@H](Cc1ccccc1)NC(=O)c1cnccn1)B(O)O [Bortezomib] (partner 0.002 µM)"
  study.target: "NCI-H23"
  observed.property: "relative viability"
  observed.measurement: 0.986
- compound: "NC(=O)Nc1cc(-c2cccc(F)c2)sc1C(=O)N[C@H]1CCCNC1 [AZD7762] + CCNC(=O)c1noc(-c2cc(C(C)C)c(O)cc2O)c1-c1ccc(CN2CCOCC2)cc1 [Luminespib] (partner 0.01 µM)"
  study.target: "NCI-H23"
  observed.property: "relative viability"
  observed.measurement: 0.189

---

Reported values of relative viability for individual entries
- Test system: NCI-H727
- assay.details: relative viability (nuclei count vs DMSO), 5 days (fraction); higher = more cells survive
- run.conditions: first compound 8 µM
observed.property: relative viability

- compound: "C=C1C(=O)O[C@@H](CCCCCCCC)[C@@H]1C(=O)O [C-75] + CC1(C)CCC(c2ccc(Cl)cc2)=C(CN2CCN(c3ccc(C(=O)NS(=O)(=O)c4ccc(N[C@H](CCN5CCOCC5)CSc5ccccc5)c(S(=O)(=O)C(F)(F)F)c4)cc3)CC2)C1 [Navitoclax] (partner 0.5 µM)"
  observed.measurement: 0.319
- compound: "C=C1C(=O)O[C@@H](CCCCCCCC)[C@@H]1C(=O)O [C-75] + C[C@]1(O)C[C@@H](c2nc(-c3ccc4ccc(-c5ccccc5)nc4c3)c3c(N)nccn32)C1 [Linsitinib] (partner 1 µM)"
  observed.measurement: 0.283
- compound: "C=C1C(=O)O[C@@H](CCCCCCCC)[C@@H]1C(=O)O [C-75] + Cc1nc(NC(=O)N2CCC[C@H]2C(N)=O)sc1-c1ccnc(C(C)(C)C(F)(F)F)c1 [Alpelisib] (partner 2 µM)"
  observed.measurement: 0.688
- compound: "C=C1C(=O)O[C@@H](CCCCCCCC)[C@@H]1C(=O)O [C-75] + Cc1nc(Nc2ncc(C(=O)Nc3c(C)cccc3Cl)s2)cc(N2CCN(CCO)CC2)n1 [Dasatinib] (partner 0.075 µM)"
  observed.measurement: 0.305
- compound: "C=C1C(=O)O[C@@H](CCCCCCCC)[C@@H]1C(=O)O [C-75] + COc1cc2c(Oc3ccc(NC(=O)C4(C(=O)Nc5ccc(F)cc5)CC4)cc3F)ccnc2cc1OCCCN1CCOCC1 [Foretinib] (partner 0.25 µM)"
  observed.measurement: 0.917

---

- System: 201T
- assay.details: relative viability (nuclei count vs DMSO), 5 days (fraction); higher = more cells survive
- run.conditions: first compound 0.4 µM
# note: boundary value 0.8 maps to no; relative viability below it maps to yes

- compound: "O=C(O)c1ccc(-c2c[nH]c3ncc(-c4ccccc4)cc23)cc1C1CCCC1 + O=C(c1cc(Cc2n[nH]c(=O)c3ccccc23)ccc1F)N1CCN(C(=O)C2CC2)CC1 [Olaparib] (partner 8 µM)"
  study.target: "201T"
  assigned.class: "no"
- compound: "O=C(O)c1ccc(-c2c[nH]c3ncc(-c4ccccc4)cc23)cc1C1CCCC1 + C[C@]1(O)C[C@@H](c2nc(-c3ccc4ccc(-c5ccccc5)nc4c3)c3c(N)nccn32)C1 [Linsitinib] (partner 1 µM)"
  study.target: "201T"
  assigned.class: "no"
- compound: "O=C(O)c1ccc(-c2c[nH]c3ncc(-c4ccccc4)cc23)cc1C1CCCC1 + CC(=O)c1c(C)c2cnc(Nc3ccc(N4CCNCC4)cn3)nc2n(C2CCCC2)c1=O [Palbociclib] (partner 0.5 µM)"
  study.target: "201T"
  assigned.class: "yes"
- compound: "O=C(O)c1ccc(-c2c[nH]c3ncc(-c4ccccc4)cc23)cc1C1CCCC1 + NC(=O)Nc1cc(-c2cccc(F)c2)sc1C(=O)N[C@H]1CCCNC1 [AZD7762] (partner 0.2 µM)"
  study.target: "201T"
  assigned.class: "yes"

---

As shown below, each of these molecules has a reported relative viability value.
- System: NCI-H1650
- assay.details: relative viability (nuclei count vs DMSO), 5 days (fraction); higher = more cells survive
- run.conditions: first compound 0.08 µM

- molecule: "C=C1C(=O)O[C@@H](CCCCCCCC)[C@@H]1C(=O)O [C-75] + CC(=O)Nc1cccc(-n2c(=O)n(C3CC3)c(=O)c3c(Nc4ccc(I)cc4F)n(C)c(=O)c(C)c32)c1 [Trametinib] (partner 0.02 µM)"
  relative viability: 0.462
- molecule: "C=C1C(=O)O[C@@H](CCCCCCCC)[C@@H]1C(=O)O [C-75] + CC1(C)CCC(c2ccc(Cl)cc2)=C(CN2CCN(c3ccc(C(=O)NS(=O)(=O)c4ccc(N[C@H](CCN5CCOCC5)CSc5ccccc5)c(S(=O)(=O)C(F)(F)F)c4)cc3)CC2)C1 [Navitoclax] (partner 0.5 µM)"
  relative viability: 1.22
- molecule: "Oc1nc(-c2ccc(C(F)(F)F)cc2)nc2c1CSCC2 [XAV939] + CS(=O)(=O)N1CCN(Cc2cc3nc(-c4cccc5[nH]ncc45)nc(N4CCOCC4)c3s2)CC1 [Pictilisib] (partner 1 µM)"
  relative viability: 0.587
- molecule: "C=C1C(=O)O[C@@H](CCCCCCCC)[C@@H]1C(=O)O [C-75] + CC(=O)c1c(C)c2cnc(Nc3ccc(N4CCNCC4)cn3)nc2n(C2CCCC2)c1=O [Palbociclib] (partner 0.5 µM)"
  relative viability: 0.431
- molecule: "Oc1nc(-c2ccc(C(F)(F)F)cc2)nc2c1CSCC2 [XAV939] + CC(=O)c1c(C)c2cnc(Nc3ccc(N4CCNCC4)cn3)nc2n(C2CCCC2)c1=O [Palbociclib] (partner 0.5 µM)"
  relative viability: 0.268
- molecule: "C=C1C(=O)O[C@@H](CCCCCCCC)[C@@H]1C(=O)O [C-75] + Nc1ncn([C@H]2C[C@H](O)[C@@H](CO)O2)c(=O)n1 [Decitabine] (partner 2 µM)"
  relative viability: 0.362
- molecule: "C=C1C(=O)O[C@@H](CCCCCCCC)[C@@H]1C(=O)O [C-75] + O=C(CCCCCCC(=O)Nc1ccccc1)NO [Vorinostat] (partner 1 µM)"
  relative viability: 0.597
- molecule: "Oc1nc(-c2ccc(C(F)(F)F)cc2)nc2c1CSCC2 [XAV939] + Cc1nc(Nc2ncc(C(=O)Nc3c(C)cccc3Cl)s2)cc(N2CCN(CCO)CC2)n1 [Dasatinib] (partner 0.075 µM)"
  relative viability: 0.331
- molecule: "C=C1C(=O)O[C@@H](CCCCCCCC)[C@@H]1C(=O)O [C-75] + CC(C)C[C@H](NC(=O)[C@H](Cc1ccccc1)NC(=O)c1cnccn1)B(O)O [Bortezomib] (partner 0.002 µM)"
  relative viability: 0.223
- molecule: "C=C1C(=O)O[C@@H](CCCCCCCC)[C@@H]1C(=O)O [C-75] + COc1cc2c(Oc3ccc(NC(=O)C4(C(=O)Nc5ccc(F)cc5)CC4)cc3F)ccnc2cc1OCCCN1CCOCC1 [Foretinib] (partner 0.25 µM)"
  relative viability: 1.2
- molecule: "Oc1nc(-c2ccc(C(F)(F)F)cc2)nc2c1CSCC2 [XAV939] + COc1cccc2cc(-c3nc([C@H]4CC[C@H](C(=O)O)CC4)n4ncnc(N)c34)[nH]c12 [OSI-027] (partner 0.5 µM)"
  relative viability: 0.817
- molecule: "C=C1C(=O)O[C@@H](CCCCCCCC)[C@@H]1C(=O)O [C-75] + C[C@@H](Oc1cc(-c2cnn(C3CCNCC3)c2)cnc1N)c1c(Cl)ccc(F)c1Cl [Crizotinib] (partner 1 µM)"
  relative viability: 0.961
